experiment: soluble fraction after stress (log2 fold change); higher = more stays soluble; pooled small domains, quantitative proteomics; settings: stress: pH 4

{"Sequence Code": "HMSTASPEELRQTPERRRLIEYLREHGGHGRTSEIAAALGIDDSTASRLLRRLADNGLIVRTQYGEYTLLQ", "soluble fraction (log2)": -0.0496}
{"Sequence Code": "HMNTKLSYSDLIEKIEAGQVEKVELDAGGSSAIVKLKNDNIEKRVNVPSIDNLMENLQDNMKTGNISVTE", "soluble fraction (log2)": -0.202}
{"Sequence Code": "HMNRYPIQTEVHAFNDDIIKEAINFEMSRGGQIFFVNNRIPQLYELENTIHRLVPDARVVIGHGQMP", "soluble fraction (log2)": -0.722}
{"Sequence Code": "HMNSTSGIAGVGYWINQYRKKKGMSPVDKKSPLVRRVYDWVQEQYDEGRITIISDAELTRQTELAMEA", "soluble fraction (log2)": 0.0383}
{"Sequence Code": "HMEAPNELLVPEGARPARADRVLAAAFPEHSRTALQRAFDAGLVRRANLVLSRDTAVAGGDRIAFSLPAV", "soluble fraction (log2)": 0.0302}
{"Sequence Code": "HMPLDYNELRSISPKAARQAILQILAANKGNVSATAKLLGVSRKTVYKAMHKKASGNLDDTSRAPK", "soluble fraction (log2)": 0.13}
{"Sequence Code": "HMLTKAEEQVMDYLWKLEKAFVKDILDEFPEPKPAYTTVSTMVRILEKKGMVGYTAYGKNHQYYPL", "soluble fraction (log2)": -1.18}
{"Sequence Code": "HMKFNLWLSEKLKKLGLTQRKLAEQAGVSPATVSRWLSGEFEPDLTNLRKINQVLGVPERELFLQLGL", "soluble fraction (log2)": -0.0282}
